Assay: Fraction unbound in rat plasma
Type: ADME, cell-free
MEASUREMENT NAME: fraction unbound

[[record]]
compound = "CCC(C1CC1)n1c(=O)c(C)nc2c(-c3cc(Cl)c(OC(F)F)cc3C)ncnc21 (centres undefined)"
measurement_name = "fraction unbound"
recorded_number = 0.004

[[record]]
compound = "COc1ccc(-c2ncnc3c2nc(C)c(=O)n3C(C2CC2)C2CC2)c(C)c1"
measurement_name = "fraction unbound"
recorded_number = 0.014

[[record]]
compound = "COCC(C1CC1)n1c(=O)c(C)nc2c(-c3cc(F)c(OC)cc3Cl)ncnc21 (centres undefined)"
measurement_name = "fraction unbound"
recorded_number = 0.028


P. CC[C@H](COC)n1c(=O)c(C)nc2c(-c3ccc(Cl)cc3Cl)ncnc21
Q. CCC(COC)n1c(=O)c(C)nc2c(-c3cc(F)c(OC)cc3Cl)ncnc21 (centres undefined)
R. CC[C@@H](C1CC1)n1c(=O)c(C)nc2c(-c3ccc(Cl)cc3Cl)ncnc21
Ordering criterion: fraction unbound; begin with the maximum. Put the labels in the order asked and list them.
P, Q, R
(P: 0.022, Q: 0.014, R: 0.004)

* * *

Target: UniProt P35353
Sequence (P35353 whole entry): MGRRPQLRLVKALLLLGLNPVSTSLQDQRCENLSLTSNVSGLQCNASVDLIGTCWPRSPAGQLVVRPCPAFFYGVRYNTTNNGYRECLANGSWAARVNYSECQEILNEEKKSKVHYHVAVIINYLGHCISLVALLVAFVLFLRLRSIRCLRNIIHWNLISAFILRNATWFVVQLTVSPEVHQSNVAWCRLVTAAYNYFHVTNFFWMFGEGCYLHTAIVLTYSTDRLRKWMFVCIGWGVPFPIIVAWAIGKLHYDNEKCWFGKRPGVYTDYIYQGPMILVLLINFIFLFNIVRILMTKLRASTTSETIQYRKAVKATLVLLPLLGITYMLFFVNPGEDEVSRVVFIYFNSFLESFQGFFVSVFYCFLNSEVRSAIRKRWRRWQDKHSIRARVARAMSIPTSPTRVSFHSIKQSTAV
Assay: Antagonist activity at rat CFR1R
Type: functional
MEASUREMENT NAME: IC50 (nM)

[[record]]
molecule = "CCC(C1CC1)n1c(=O)c(C)nc2c(-c3cc(C)c(Cl)cc3OC)ccnc21 (racemic)"
recorded_number = 1.1

[[record]]
molecule = "CC[C@@H](C1CC1)n1c(=O)c(C)nc2c(-c3ccc(Cl)cc3Cl)ccnc21"
recorded_number = 7.4


I. COCC(C1CC1)n1c(=O)c(C)nc2c(-c3cc(F)c(OC)cc3Cl)ccnc21 (stereo not given)
II. CC[C@@H](C1CC1)n1c(=O)c(C)nc2c(-c3ccc(Cl)cc3Cl)ncnc21
Which is greater in IC50, the first item I or the second item II ? Use the label to indicate which entry you chose.
II
(II: 24 nM, I: 1.5 nM)

a. CCC(C1CC1)n1c(=O)c(C)nc2c(-c3cc(Cl)c(OC(F)F)cc3C)ncnc21 (stereo not given)
b. CCC(C1CC1)n1c(=O)c(C)nc2c(-c3cc(C#N)c(C)cc3Cl)ccnc21 (stereo not given)
Looking only at measured IC50, which entry is lower, a or b ? Use the label to indicate which entry you chose.
b
(b: 4.8 nM, a: 38 nM)

P. CCCC(C1CC1)n1c(=O)c(C)nc2c(-c3ccc(Cl)cc3Cl)ccnc21 (stereo not given)
Q. COCC(C)n1c(=O)c(C)nc2c(-c3ccc(Cl)cc3Cl)ccnc21 (stereo not given)
Which is greater in IC50, the first item P or the second item Q ? Use the label to indicate which entry you chose.
Q

* * *

Assay: Volume of distribution at steady state in rat at 0.5 mg/kg, iv and 1.5 mg/kg, po
Format: ADME, organism-based
Details: in vivo, read-out: Vdss
MEASUREMENT NAME: Vd (L/kg)

[[record]]
compound = "COCC(C1CC1)n1c(=O)c(C)nc2c(-c3cc(F)c(OC)cc3Cl)ncnc21 (configuration not stated)"
measurement_name = "Vd"
measurement_units = "L/kg"
recorded_number = 2.05

[[record]]
compound = "CCC(COC)n1c(=O)c(C)nc2c(-c3cc(Cl)c(OC)cc3C)ccnc21 (configuration not stated)"
measurement_name = "Vd"
measurement_units = "L/kg"
recorded_number = 1.8

